test_system: Fructose-1,6-bisphosphatase 1 (Mus musculus)
Sequence (Q9QXD6 whole entry): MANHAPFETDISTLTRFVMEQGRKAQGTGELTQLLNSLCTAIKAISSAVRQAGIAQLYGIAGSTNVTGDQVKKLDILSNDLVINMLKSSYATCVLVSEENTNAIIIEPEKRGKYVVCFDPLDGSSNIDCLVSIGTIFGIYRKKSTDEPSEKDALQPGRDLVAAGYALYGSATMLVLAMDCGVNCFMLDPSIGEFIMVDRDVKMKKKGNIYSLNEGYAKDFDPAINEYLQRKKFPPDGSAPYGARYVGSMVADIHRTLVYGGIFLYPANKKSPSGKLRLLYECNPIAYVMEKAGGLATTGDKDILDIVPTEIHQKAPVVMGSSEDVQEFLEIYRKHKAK
protocol_summary: Inhibition of FBPase in mouse liver
pEC50: −log10 of the molar value.
# maps each entry to its pEC50
result_type: pEC50

> print(dat)
                          structure.notation  result.type  bound.type  quantitative.readout
 1  Cn1cc(S(=O)(=O)NC(=O)Nc2ncc(Br)s2)c2ccccc21        pEC50           =                  4.85
 2  COc1nc(-c2ccc(S(=O)(=O)NC(=O)Nc3ncc(Br)s3)cc2C)cs1        pEC50           =                  4.21
 3  Cc1cc(S(=O)(=O)NC(=O)Nc2ncc(Br)s2)ccc1-c1ccc(F)nc1        pEC50           =                  5.00
 4  Cc1cc(S(=O)(=O)NC(=O)Nc2ncc(Br)s2)sc1-c1ccc(F)nc1        pEC50           =                  5.05
 5  Cc1cc(S(=O)(=O)NC(=O)Nc2ncc(Br)s2)sc1CC(C)C        pEC50           =                  4.89
 6  O=C(Nc1ncc(Br)s1)NS(=O)(=O)c1cc(Br)c(Cl)s1        pEC50           =                  4.06
 7   CCc1cccc(S(=O)(=O)NC(=O)Nc2ncc(Br)s2)c1        pEC50           =                  4.49
 8  CCc1cc(S(=O)(=O)NC(=O)Nc2ncc(Br)s2)ccc1-c1ccccc1        pEC50           =                  4.20
 9  COc1ccc(Cl)c2sc(NC(=O)NS(=O)(=O)c3cc(C)c(CCO)s3)nc12        pEC50           =                  4.82
10  COc1ccc(-c2sc(S(=O)(=O)NC(=O)Nc3ncc(Br)s3)cc2C)c(C)c1        pEC50           =                  4.72
11  O=C(Nc1ncc(Br)s1)NS(=O)(=O)c1cc2c(s1)CCOC2        pEC50           =                  4.57
12   Cc1cc(S(=O)(=O)NC(=O)Nc2ncc(Br)s2)sc1CO        pEC50           =                  4.38
13  CC(C)c1cccc(S(=O)(=O)NC(=O)Nc2ncc(Br)s2)c1        pEC50           =                  4.13
14  COCCOc1sc(S(=O)(=O)NC(=O)Nc2ncc(Br)s2)cc1C        pEC50           =                  4.92
15  COc1cccc2c(S(=O)(=O)NC(=O)Nc3ncc(Br)s3)cn(C)c12        pEC50           =                  4.85
16  Cc1nc(NC(=O)NS(=O)(=O)c2cccc(OC(F)F)c2)sc1Br        pEC50           =                  4.85
17  O=C(Nc1ncc(Br)s1)NS(=O)(=O)c1cccc(OC(F)(F)F)c1        pEC50           <                  4.00
18  Cc1ccc2sc(S(=O)(=O)NC(=O)Nc3ncc(Br)s3)cc2c1        pEC50           =                  4.74
19  COCc1sc(S(=O)(=O)NC(=O)Nc2ncc(Br)s2)cc1C        pEC50           =                  5.00
20  CCc1nc(NC(=O)NS(=O)(=O)c2cc(C)c(CCO)s2)sc1OC        pEC50           =                  5.04
21    Nc1cccc(S(=O)(=O)NC(=O)Nc2ncc(Br)s2)c1        pEC50           <                  4.00
22    Cc1cccc(S(=O)(=O)NC(=O)Nc2ncc(Br)s2)c1        pEC50           =                  4.64
